pest or weed control at 25 ppm values for the compounds below.
# Test system: Phakopsora pachyrhizi
# TEST DETAILS: Asian Soybean Rust fungicidal activity (PHAKPA)
# CONDITION LABEL: Phakopsora pachyrhizi, in Glycine max, 24 h, read-out: PHAKPA 1DP % Control rating, soybean, high volume, 25 ppm, 1 Day Protectant

COMPOUND: COc1ccnc(C(=O)N[C@@H](C)C(=O)O[C@@H](C)C(Oc2ccc(F)cc2)c2ccccc2)c1OC(C)=O (some centres unmarked)
pest or weed control at 25 ppm: > 80%

State the recorded pest or weed control at 25 ppm for this entry: CCCO[C@H](c1ccccc1)[C@H](C)OC(=O)[C@H](C)NC(=O)c1nccc(OC)c1OC(C)=O > 80%

Consider next the compound COc1ccnc(C(=O)N[C@@H](C)C(=O)O[C@@H](C)[C@H](OCC2CC2)c2ccccc2)c1OC(C)=O in the same way. > 80%

Same for COc1ccnc(C(=O)N[C@H](C)C(=O)O[C@H](C)[C@@H](Oc2ccccc2)c2ccccc2)c1OCOC(C)=O < 0%

----------
# System: Zymoseptoria tritici
# TEST DETAILS: Leaf Blotch of Wheat fungicidal activity (SEPTTR)
# Format: in vivo
# CONDITION LABEL: 72 h, Low Volume Cereal Activity at 121.5 g/Ha, 3 Day Curative, read-out: SEPTTR 3DC (Wheat Leaf Blotch, 3 Day Curative)
EXPERIMENTAL ENDPOINT: pest or weed control at 121.5 g/ha

Example results:
SUBSTANCE SMILES: COc1ccnc(C(=O)N[C@H](C(=O)O[C@@H](C)[C@H](Oc2ccc(C(F)(F)F)cc2)c2ccccc2)C(C)C)c1OC(C)=O
pest or weed control at 121.5 g/ha: < 0%
--
SUBSTANCE SMILES: COc1ccnc(C(=O)N[C@@H](C)C(=O)O[C@@H](C)[C@H](Oc2ccc(C(F)(F)F)cc2)c2ccccc2)c1OC(C)=O
pest or weed control at 121.5 g/ha: > 80%
--
SUBSTANCE SMILES: COc1cccc([C@@H](Oc2ccccc2)[C@H](C)OC(=O)[C@H](C)NC(=O)c2nccc(OC)c2OCOC(C)=O)c1
pest or weed control at 121.5 g/ha: > 80%
--
SUBSTANCE SMILES: COc1cc(F)ccc1[C@@H](Oc1ccc(C)cc1Cl)[C@H](C)OC(=O)[C@H](C)NC(=O)c1nccc(OC)c1OC(C)=O
pest or weed control at 121.5 g/ha: > 80%
--
SUBSTANCE SMILES: COc1cc(F)ccc1[C@@H](Oc1ccccc1)[C@H](C)OC(=O)[C@H](C)NC(=O)c1nccc(OC)c1OC(C)=O
pest or weed control at 121.5 g/ha: > 80%

Write down the reported pest or weed control at 121.5 g/ha of COc1ccnc(C(=O)N[C@@H](C)C(=O)O[C@@H](C)[C@H](Oc2ccc(C)cc2Cl)c2ccc(F)cc2)c1OCOC(C)=O , test system: Zymoseptoria tritici. > 80%

Quick one: COc1cc(F)ccc1[C@H](OC1CC1)[C@H](C)OC(=O)[C@H](C)NC(=O)c1nccc(OC)c1OC(C)=O < 0%

Item: COc1ccnc(C(=O)N[C@@H](C)C(=O)O[C@@H](C)[C@H](OC)c2ccccc2)c1OC(C)=O > 80%

Now consider COc1ccnc(C(=O)N[C@@H](C)C(=O)O[C@@H](C)[C@@H](Oc2ccccc2)c2ccccc2)c1OCOC(C)=O . > 80%

Next record, please: COc1ccnc(C(=O)N[C@@H](C)C(=O)O[C@@H](C)[C@H](Oc2cc(F)cc(Cl)c2)c2ccccc2)c1OCOC(C)=O > 80%

Now the same for COc1ccnc(C(=O)N[C@@H](C)C(=O)O[C@@H](C)[C@H](Oc2ccc(Cl)cc2Cl)c2ccccc2)c1OCOC(C)=O > 80%

Likewise for COc1ccnc(C(=O)N[C@@H](C)C(=O)O[C@@H](C)[C@@H](OCC2CC2)c2ccccc2)c1OC(C)=O ? > 80%

Continue with COc1ccnc(C(=O)N[C@@H](C)C(=O)O[C@@H](C)[C@H](Oc2cccc(F)c2)c2cccc(-c3ccccc3)c2)c1OCOC(C)=O < 80%
